Kindly supply the reported EC50 values for the records listed here.
Target: T1, recombinant human TROP2 extracellular domain (aa 1-274) comprising His tag (human, UniProt P09758 27-274)
T1 construct: Used here for all assays on recombinant human TROP2 (ELISA, immunoblot, SPR, crystal), although only some of them name the catalogue number; also called human recombinant TROP2; recombinant human TROP2 protein; not shown: His tag
T1 sequence: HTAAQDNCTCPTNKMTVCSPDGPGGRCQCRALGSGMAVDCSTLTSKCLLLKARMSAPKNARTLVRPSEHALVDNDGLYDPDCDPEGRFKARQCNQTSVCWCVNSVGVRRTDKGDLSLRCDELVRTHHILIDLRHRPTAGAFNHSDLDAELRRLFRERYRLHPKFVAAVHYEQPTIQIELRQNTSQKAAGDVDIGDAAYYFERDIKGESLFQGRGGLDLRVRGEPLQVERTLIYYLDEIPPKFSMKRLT
Assay: ELISA, coated rh TROP2
Numeric answer only, unit nM assumed.

Query: Find the measured EC50 of KD042 (antibody, V domains shown, KD002 humanized variant) VH: QVQLQESGGGLVQPGGSLRLSCAASGFPFSSADMSWVRQAPGKGLEWVSYINANGSKTYYADTVKGRFTISRDNSKNTLYLQMNSLRAEDTAVYRCARAKLTDTHYVEDYWGQGTMVTVSS and report it.
Result: 0.07

Query: Read the entry KD034 (antibody, V domains shown, KD002 humanized variant) VH: QVQLQESGGGLVQPGGSLRLSCAASGFPFSSADMSWVRQAPGKGLEWVSYINADGSKTYYADTVKGRFTISRDNSKNTLYLQMNSLRAEDTAVYYCARAKLTDTHYVEDYWGQGTMVTVSS and write its reported EC50.
Result: 0.13

Query: Kindly indicate its recorded EC50. Item: KD030 (antibody, V domains shown, KD002 humanized variant) VH: QVQLQESGGGLVQPGGSLRLSCAASGFPFSSADMSWVRQAPGKGLEWVSYINADGSKTYYADTVKGRFTISRDNSKNTLYLQMNSLRAEDTAVYRCARAKLTDTHYVEDYWGQGTMVTVSS
Result: 0.12

Query: Entry KD031 (antibody, V domains shown, KD002 humanized variant) VH: EVQLQESGGGLVQPGGSLRLSCAASGFPFSSADMSWVRQAPGKGLEWVSYINADGSKTYYADTVKGRFTISRDNSKNTLYLQMNSLRAEDTAVYRCARAKLTDTHYVEDYWGQGTMVTVSS needs its EC50 filled in; supply it.
Result: 0.11

Query: Check the records and state EC50 for KD038 (antibody, V domains shown, KD002 humanized variant) VH: QVQLQESGGGLVQPGGSLRLSCAASGFPFSSADMSWVRQAPGKGLEWVSYINADGSKTYYADTVKGRFTISRDNSKNTLYLQMNSLRAEDTALYRCARAKLTDTHYVEDYWGQGTMVTVSS
Result: 0.26

Query: Tell me EC50 reported for KD021 (antibody, V domains shown, KD002 humanized variant) VH: EVQLVESGGGLVQPGGSLRLSCAASGFPFSSADMSWVRQAPGKGLEWVSYINADGSKTSYADTVKGRFTISRDNAKNTLYLQMNSLRAEDTAVYYCARAKLTDTHYVEDYWGQGTLVTVSS
Result: 4.3

Query: Report EC50 for KD028 (antibody, V domains shown, KD002 humanized variant) VH: EVQLLESGGGLVQPGGSLRLSCAASGFPFSSADMSWVRQAPGKGLEWVSVINADGSKTYYADTVKGRFTISRDNSKNTLYLQMNSLRAEDTAVYYCARAKLTDTHYVEDYWGQGTMVTVSS
Result: 0.14

Query: Return EC50 for the following binder: KD041 (antibody, V domains shown, KD002 humanized variant) VH: QVQLQESGGGLVQPGGSLRLSCAASGFPFSSADMSWVRQAPGKGLEWVSYINAEGSKTYYADTVKGRFTISRDNSKNTLYLQMNSLRAEDTAVYRCARAKLTDTHYVEDYWGQGTMVTVSS
Result: 0.15
